# system: Human CB1 Receptor-1 (hCB1) (Homo sapiens (Human))
# Sequence (P21554 whole entry): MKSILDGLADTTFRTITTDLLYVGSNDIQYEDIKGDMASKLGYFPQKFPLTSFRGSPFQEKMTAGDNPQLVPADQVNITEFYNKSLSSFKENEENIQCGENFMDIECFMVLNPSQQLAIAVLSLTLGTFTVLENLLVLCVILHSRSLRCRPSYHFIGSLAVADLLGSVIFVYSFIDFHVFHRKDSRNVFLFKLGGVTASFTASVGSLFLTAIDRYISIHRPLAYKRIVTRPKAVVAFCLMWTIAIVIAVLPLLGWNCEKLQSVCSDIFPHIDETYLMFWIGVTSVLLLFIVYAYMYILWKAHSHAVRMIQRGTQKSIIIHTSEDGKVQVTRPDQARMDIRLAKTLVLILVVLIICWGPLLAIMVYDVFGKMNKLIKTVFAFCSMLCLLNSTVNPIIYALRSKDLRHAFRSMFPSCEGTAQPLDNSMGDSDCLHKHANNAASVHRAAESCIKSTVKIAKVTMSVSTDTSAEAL
# assay-name: hCB1 Gai cyclic AMP (cAMP) TR-FRET assay, antagonism of EC80 CP55940 with forskolin
# test-parameters: hCB1 cells, 30 min pre-incubation
pIC50: −log10 of the molar value.
Overview of recorded pIC50 for various compounds

mol-smiles | pIC50
CC(C)(CN/C(=N\S(=O)(=O)c1ccc(Cl)cc1)N1C[C@H](c2ccccc2)C(c2ccc(Cl)cc2)=N1)CS(N)(=O)=O | 6.30 to 7.00
O=S(=O)(/N=C(\NCCS(=O)(=O)N1CCNCC1)N1C[C@H](c2ccccc2)C(c2ccc(Cl)cc2)=N1)c1ccc(Cl)cc1 | > 7.00
CN1CCN(S(=O)(=O)CCN/C(=N\S(=O)(=O)c2ccc(Cl)cc2)N2C[C@H](c3ccccc3)C(c3ccc(F)cc3)=N2)CC1 | > 7.00
NS(=O)(=O)CCN/C(=N\S(=O)(=O)c1ccc(C(F)(F)F)cc1)N1C[C@H](c2ccccc2)C(c2ccc(F)cc2)=N1 | > 7.00
C[C@H](CN/C(=N\S(=O)(=O)c1ccc(F)cc1)N1C[C@H](c2ccccc2)C(c2ccc(Cl)cc2)=N1)S(N)(=O)=O | > 7.00
CN(C)S(=O)(=O)CCN/C(=N\S(=O)(=O)c1ccc(Cl)cc1)N1C[C@H](c2ccccc2)C(c2ccc(Cl)cc2)=N1 | > 7.00
